Source: ChEMBL document CHEMBL1152848

Measured inhibition at 25 µM values are reported for all entries that follow.
# Tested on: Candida albicans
# assayProtocol: Antifungal activity against Candida albicans ATCC 10231 assessed as growth inhibition at 25 uM after 24 hrs
# Type: functional
# assayConditions: ATCC 10231, 24 h
Peptide text beside a SMILES is read from it.
Answer with a number only, understood to be in %.

| molecule | inhibition at 25 µM (%) |
| --- | --- |
| NCCCC[C@H](NC(=O)[C@H](CCCCN)NC(=O)[C@H](Cc1c[nH]c2ccccc12)NC(=O)[C@@H](N)CCCCN)C(N)=O (H-KWKK-NH2) | 0 |
| C[C@@H]1[C@H](O)[C@@H](C)/C=C/C=C/C=C/C=C/C=C/C=C/C=C/[C@H](O[C@@H]2O[C@H](C)[C@@H](O)[C@H](N)[C@@H]2O)C[C@@H]2O[C@](O)(C[C@@H](O)C[C@@H](O)[C@H](O)CC[C@@H](O)C[C@@H](O)CC(=O)O[C@H]1C)C[C@H](O)[C@H]2C(=O)O | 100 |

[ask] What measured inhibition at 25 µM goes with CC(=O)N1CCN(c2ccc(OCC3COC(Cn4ccnc4)(c4ccc(Cl)cc4Cl)O3)cc2)CC1 (stereo not given) ?
[reply] 100

[ask] // same read-out, input: "CC[C@H](C)[C@H](NC(=O)[C@H](CCCCN)NC(=O)[C@@H](NC(=O)[C@H](CCC(N)=O)NC(=O)[C@@H](N)CCCNC(=N)N)[C@@H](C)CC)C(=O)N[C@@H](Cc1c[nH]c2ccccc12)C(=O)N[C@@H](Cc1ccccc1)C(=O)N[C@@H](CCC(N)=O)C(=O)N[C@@H](CC(N)=O)C(=O)N[C@@H](CCCNC(=N)N)C(=O)N[C@@H](CCCNC(=N)N)C(=O)N[C@@H](CCSC)C(=O)N[C@@H](CCCCN)C(=O)N[C@@H](Cc1c[nH]c2ccccc12)C(=O)N[C@@H](CCCCN)C(=O)N[C@@H](CCCCN)C(N)=O"
[reply] 91

[ask] // same read-out, input: N=C(N)NCCC[C@H](N)C(=O)N[C@@H](CCC(N)=O)C(=O)N[C@@H](CCCCN)C(=O)N[C@@H](CCCCN)C(N)=O (H-RQKK-NH2)
[reply] 0

====

# System: Cryptococcus neoformans
# assayProtocol: Antifungal activity against Cryptococcus neoformans ATCC 32264 assessed as growth inhibition at 100 uM after 48 hrs
# Type: functional
# assayConditions: ATCC 32264, 48 h
quantityKind: inhibition at 100 µM (%)
Answer with a number only, understood to be in %.

Worked cases, answers included:
| substance | inhibition at 100 µM [%] |
| --- | --- |
| H-RKFRRKFKK-NH2 | 11 |
| H-RKRRKKK-NH2 | 14 |
| H-WKQKNIKWRFRQKMIR-NH2 | 92 |

[ask] What measured inhibition at 100 µM goes with "H-RKRRKWKK-NH2" ?
[reply] 33

[ask] // same read-out, input: "H-RKWRRKWKK-NH2"
[reply] 68

====

Measured inhibition at 25 µM values are reported for all entries that follow.
# System: Cryptococcus neoformans
# assayProtocol: Antifungal activity against Cryptococcus neoformans ATCC 32264 assessed as growth inhibition at 25 uM after 48 hrs
# Format: functional
# assayConditions: ATCC 32264, 48 h
Answer with a number only, understood to be in %.

| substance | inhibition at 25 µM, % |
| --- | --- |
| H-RKRRKKK-NH2 | 10 |
| H-WKQKNIKWRFRQKMIR-NH2 | 28 |

[ask] What measured inhibition at 25 µM goes with "H-RKRRKWKK-NH2" ?
[reply] 6

[ask] // same read-out, input: "H-RKWRRKWKK-NH2"
[reply] 16

[ask] // same read-out, input: "H-RKFRRKFKK-NH2"
[reply] 9

====

# System: Cryptococcus neoformans
# assayProtocol: Antifungal activity against Cryptococcus neoformans ATCC 32264 assessed as growth inhibition at 12.5 uM after 48 hrs
# Format: functional
# assayConditions: ATCC 32264, 48 h
Peptide text beside a SMILES is read from it.
quantityKind: inhibition at 12.5 µM (%)
Answer with a number only, understood to be in %.

| compound | readingUnit | recordedValue |
| --- | --- | --- |
| CC[C@H](C)[C@H](NC(=O)[C@H](CCCCN)NC(=O)[C@@H](NC(=O)[C@H](CCC(N)=O)NC(=O)[C@@H](N)CCCNC(=N)N)[C@@H](C)CC)C(=O)N[C@@H](Cc1c[nH]c2ccccc12)C(=O)N[C@@H](Cc1ccccc1)C(=O)N[C@@H](CCC(N)=O)C(=O)N[C@@H](CC(N)=O)C(=O)N[C@@H](CCCNC(=N)N)C(=O)N[C@@H](CCCNC(=N)N)C(=O)N[C@@H](CCSC)C(=O)N[C@@H](CCCCN)C(=O)N[C@@H](Cc1c[nH]c2ccccc12)C(=O)N[C@@H](CCCCN)C(=O)N[C@@H](CCCCN)C(N)=O [PENETRATIN] | % | 90 |
| CC(=O)N1CCN(c2ccc(OCC3COC(Cn4ccnc4)(c4ccc(Cl)cc4Cl)O3)cc2)CC1 (stereo not given) [KETOCONAZOLE] | % | 100 |
| NCCCC[C@H](NC(=O)[C@H](CCCCN)NC(=O)[C@H](Cc1c[nH]c2ccccc12)NC(=O)[C@@H](N)CCCCN)C(N)=O (H-KWKK-NH2) | % | 0 |
| N=C(N)NCCC[C@H](N)C(=O)N[C@@H](CCC(N)=O)C(=O)N[C@@H](CCCCN)C(=O)N[C@@H](CCCCN)C(N)=O (H-RQKK-NH2) | % | 32 |

# evaluate next
[ask] Lab note: need inhibition at 12.5 µM for C[C@@H]1[C@H](O)[C@@H](C)/C=C/C=C/C=C/C=C/C=C/C=C/C=C/[C@H](O[C@@H]2O[C@H](C)[C@@H](O)[C@H](N)[C@@H]2O)C[C@@H]2O[C@](O)(C[C@@H](O)C[C@@H](O)[C@H](O)CC[C@@H](O)C[C@@H](O)CC(=O)O[C@H]1C)C[C@H](O)[C@H]2C(=O)O [AMPHOTERICIN B] on Cryptococcus neoformans, anyone have it?
[reply] 100
